- Assay type: in vivo, human
- condition.context: male, human, plasma, po, 2.5 mg

# compound.string, Tmax, h
data = [
    ("CC(C)(Sc1ccncc1-c1ccc(C#N)c2ccccc12)C(=O)O", 4),
]
